# koff values compiled below
# target-or-test-system: T1, cynoSIRPα (NP_001271679), Extracellular Domain + His-Tag (cynomolgus monkey)
# T1 construct: also called CySIRPα NP_001271679; not shown: His-Tag
# T1 chain: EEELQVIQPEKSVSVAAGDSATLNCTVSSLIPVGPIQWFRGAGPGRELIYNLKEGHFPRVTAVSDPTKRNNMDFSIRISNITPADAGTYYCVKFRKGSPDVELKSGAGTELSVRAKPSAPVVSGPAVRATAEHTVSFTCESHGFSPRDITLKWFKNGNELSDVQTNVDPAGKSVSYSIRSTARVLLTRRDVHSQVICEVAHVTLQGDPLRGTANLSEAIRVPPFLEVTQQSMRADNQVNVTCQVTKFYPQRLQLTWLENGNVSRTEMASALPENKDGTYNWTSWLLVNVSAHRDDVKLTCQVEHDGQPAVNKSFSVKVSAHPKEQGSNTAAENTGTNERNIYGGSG
# test: SPR, antibody captured on Protein A/G, ECD-His analyte, 1:1 fit

binder: Antibody E6 (antibody, human IgG1, kappa, L234A L235A, V domains shown) VH: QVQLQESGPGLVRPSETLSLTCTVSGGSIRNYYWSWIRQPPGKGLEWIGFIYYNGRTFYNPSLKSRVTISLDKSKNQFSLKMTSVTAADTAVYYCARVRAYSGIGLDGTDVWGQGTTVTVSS VL: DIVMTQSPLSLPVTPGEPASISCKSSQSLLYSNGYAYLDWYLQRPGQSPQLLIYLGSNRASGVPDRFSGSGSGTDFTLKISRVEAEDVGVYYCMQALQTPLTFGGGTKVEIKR
koff: 0.00774 s⁻¹
--
binder: Antibody E1 (antibody, human IgG1, kappa, L234A L235A, V domains shown) VH: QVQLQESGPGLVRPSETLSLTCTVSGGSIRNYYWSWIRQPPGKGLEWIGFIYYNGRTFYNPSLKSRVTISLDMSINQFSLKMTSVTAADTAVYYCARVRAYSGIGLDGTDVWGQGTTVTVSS VL: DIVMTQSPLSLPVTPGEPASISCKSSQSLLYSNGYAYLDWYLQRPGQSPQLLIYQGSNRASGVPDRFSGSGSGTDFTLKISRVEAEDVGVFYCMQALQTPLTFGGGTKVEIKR
koff: 0.00327 s⁻¹
--
binder: Antibody E11 (antibody, human IgG1, kappa, L234A L235A, V domains shown) VH: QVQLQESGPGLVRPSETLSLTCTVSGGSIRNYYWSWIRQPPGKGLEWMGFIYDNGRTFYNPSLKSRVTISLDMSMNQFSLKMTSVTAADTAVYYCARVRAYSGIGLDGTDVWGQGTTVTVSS VL: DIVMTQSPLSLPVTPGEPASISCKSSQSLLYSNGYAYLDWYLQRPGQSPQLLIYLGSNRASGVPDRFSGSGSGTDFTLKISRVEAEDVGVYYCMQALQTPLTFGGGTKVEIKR
koff: 0.00542 s⁻¹
